The entries below come with measured IC50 values attached.
# Assay system: HDM2 (Homo sapiens (Human), UniProt Q00987)
# Sequence (Q00987 17-125): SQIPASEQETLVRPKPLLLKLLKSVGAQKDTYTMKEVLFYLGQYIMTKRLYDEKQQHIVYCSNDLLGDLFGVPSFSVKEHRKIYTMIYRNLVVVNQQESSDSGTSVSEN
# Assay text: HDM2 FRET assay (inhibition of p53 peptide binding to HDM2)
# Settings: truncated HDM2 residues 17 to 125, 0.5 nM; FITC labeled 8-mer peptide 3 nM; two hour incubation at room temperature
# Method: Methods: An HDM2 FRET assay was developed to assess the compounds' inhibitory activity towards binding of p53 protein. […] After two hour incubation at room temperature in a humidified chamber plates were read on EnVision plate reader with the following settings: excitation: UV, […], two emission filters: 520 nm and 495 nm respectively. […]
Please give a number only; it is taken to be in nM.

For orientation, consider the following solved cases.
| Structure string | Assay system | Outcome measure | Result number |
| --- | --- | --- | --- |
| C[C@H]1CC[C@H](Cn2cc(CCc3cccnc3)c3nc(C(=O)O)nc(-c4cncc(Cl)c4)c32)CC1 | HDM2 (Homo sapiens (Human), UniProt Q00987) | IC50 | 47 |
| Cc1cccc(-c2cc3nc(C(=O)O)nc(N[C@H](C)C4CCC4)c3n2Cc2ccc(C(F)F)cc2)c1 | HDM2 (Homo sapiens (Human), UniProt Q00987) | IC50 | 530 |
| Cc1cccc(-c2cc3nc(C(=O)O)nc(N[C@H](C)C4CCC4)c3n2Cc2ccc(C(F)(F)F)cc2N)c1 | HDM2 (Homo sapiens (Human), UniProt Q00987) | IC50 | 11 |

Could you now look at the following molecule, please?
So what does the record say about IC50 for COc1cc(OC(F)(F)F)ccc1Cn1c(-c2cccc(C)c2)cc2nc(C(=O)O)nc(N[C@H](C)C3CCC3)c21 ? 4370

* * *

# Assay system: UniProt Q00987
# Assay text: HDM2 FRET assay (inhibition of p53 peptide binding to HDM2)
# Settings: truncated HDM2 residues 17 to 125, 0.5 nM; FITC labeled 8-mer peptide 3 nM; two hour incubation at room temperature
pIC50: −log10 of the molar value.
Use 7 as the dividing line for pIC50, with the line itself on the label 1 side and lower values as label 0.

| Structure string | Assay system | Assigned label |
| --- | --- | --- |
| C[C@H]1CC[C@H](Cn2cc(CCc3cccnc3)c3nc(-c4noc(=O)[nH]4)nc(-c4cncc(Cl)c4)c32)CC1 | UniProt Q00987 | label 1 |
| Cc1cn(C[C@H]2CC[C@H](C)CC2)c2c(-c3cccc(Cl)c3)nc(C(=O)O)nc12 | UniProt Q00987 | label 0 |
| Cc1ccc(F)c(-c2cn(Cc3ccc(C(F)(F)F)cc3)c3c(N[C@H](C)C4CCC4)nc(C(=O)O)nc23)c1 | UniProt Q00987 | label 0 |

Consider the additional compound presented here.
Evaluate Cc1cccc(-c2cc3nc(C(=O)O)nc(N[C@H](C)C4CCC4)c3n2Cc2ccc(C(F)(F)F)cn2)c1 : pIC50 at minimum 7? label 0

* * *

# Assay system: HDM2 (Homo sapiens (Human))
# Assay text: HDM2 FRET assay (inhibition of p53 peptide binding to HDM2)
# Settings: truncated HDM2 residues 17 to 125, 0.5 nM; FITC labeled 8-mer peptide 3 nM; two hour incubation at room temperature
pIC50: −log10 of the molar value.
Short version: pIC50 at least 7 is rule met, less is rule not met.

| Structure string | Assigned label |
| --- | --- |
| Cc1cccc(-c2cc3nc(C(=O)O)nc(N[C@H](C)C4CCC4)c3n2Cc2ccc(Br)c(F)c2)c1 | rule met |
| C[C@H]1CC[C@H](Cn2ccc3nc(-c4noc(=O)[nH]4)nc(-c4cncc(Cl)c4)c32)CC1 | rule met |
| Cc1cccc(-c2cc3nc(C(=O)O)nc(N[C@H](C)C4CCC4)c3n2Cc2ccc(OC(F)F)cc2)c1 | rule not met |

Is it the case that Cc1cccc(-c2cc3nc(C(=O)O)nc(N[C@H](C)C4CCC4)c3n2Cc2ccc(Cl)c(F)c2)c1 has pIC50 reaching or exceeding 7? rule met

Reported pIC50 reaches at least 7 for Cc1ccnc(-c2cc3nc(C(=O)O)nc(N[C@H](C)C4CCC4)c3n2Cc2ccc(C(F)(F)F)cc2)c1 ? rule met

Confirm if pIC50 reported for the compound CC(C)c1ccnc(-c2cc3nc(C(=O)O)nc(N[C@H](C)C4CCC4)c3n2Cc2ccc(C(F)(F)F)cc2)c1 is 7 or above. rule met
